All figures here come from paper PMC10054240.

Recorded pEC50 values for a group of molecules are listed next.
Test system: RSV A strain A2
experimentDescription: Antiviral activity against RSV A strain A2 in HEp-2 cells (ELISA virus titer)
Type: cell-based, respiratory syncytial virus
setupConditions: human respiratory syncytial virus, read-out: EC50 (50% effective concentration); RSV A strain A2, HEp-2 cells
Hey, just a heads up that pEC50 is the negative log base 10 of the concentration in molar.

Q: May I ask what pEC50 has been recorded for NC(=O)c1ncn([C@@H]2O[C@H](CO)[C@@H](O)[C@H]2O)n1 [Ribavirin, reference compound] ?
Result: 4.10

---
Q: I'd like to know its pEC50. The molecule in question is COc1ccc(-c2cc(=O)oc3cc(OCCCC4=CC[C@H]5C[C@@H]4C5(C)C)ccc23)cc1 [Compound 17e]
Result: 4.44
